Target: T1, 4H855-bH
T1 chain: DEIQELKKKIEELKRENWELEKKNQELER
Assay: two-hybrid library CCNG1;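 further: natural log of median RNA to DNA barcode read ratio; higher means stronger binding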
PARAMETER: interaction score

BINDER	NUMERIC VALUE
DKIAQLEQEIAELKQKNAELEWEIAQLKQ [4H2162-bA]	-2.4

(P) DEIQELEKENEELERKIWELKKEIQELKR [4H170-bH]
(Q) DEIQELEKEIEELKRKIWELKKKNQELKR [4H112-bH]
(R) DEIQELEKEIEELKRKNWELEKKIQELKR [4H118-bH]
Rank by interaction score (largest to smallest). Provide your answer as the labels ordered per the instruction. R, Q, P
(R: 0.119, Q: -0.0783, P: -0.762)

(A) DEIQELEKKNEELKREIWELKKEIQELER [4H457-bH]
(B) DEIQELKKENEELKRKNWELEKEIQELKR [4H754-bH]
Which entry shows the lesser value of interaction score here, A or B ? Kindly state the label of the option you pick. A
(A: -1.6, B: -0.362)
